system: Staphylococcus aureus; assay: Antibacterial activity against methicillin-sensitive Staphylococcus aureus 10-04 after 18 to 24 hrs by agar dilution method; format: functional
outcomeMeasure: MIC (µg/mL)
Reply with just the number (in µg/mL).

Given the compound CCO/N=C1\CC(NC)CN(c2c(F)cc3c(=O)c(C(=O)O)cn(C4CC4)c3c2F)C1 (stereo not drawn) and test system Staphylococcus aureus, the measured MIC is 0.25

Given the compound CO/N=C1\CN(c2nc3c(cc2F)c(=O)c(C(=O)O)cn3C2CC2)CC1CN (stereo not drawn) and test system Staphylococcus aureus, the measured MIC is 2

Given the compound CCn1cc(C(=O)O)c(=O)c2cc(F)c(N3C/C(=N/OC)CC(N)C3)c(F)c21 (stereo not drawn) and test system Staphylococcus aureus, the measured MIC is 0.25
